biological target: XIAP BIR-3 (Homo sapiens, UniProt P98170); construct: 40 nM of the BIR3 for 15 min at RT; assay: Fluorescence polarization binding to XIAP BIR-3 (competition with AbuRPF-K(5-Fam)-NH2); details: XIAP BIR-3 (default where cell does not indicate otherwise); reported as range class
Sequence (P98170 241-356 limits assumed): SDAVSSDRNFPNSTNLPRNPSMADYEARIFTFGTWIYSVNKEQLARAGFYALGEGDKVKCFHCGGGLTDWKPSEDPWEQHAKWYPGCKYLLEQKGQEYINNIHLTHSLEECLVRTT
pKd: −log10 of the molar value.
The compounds listed here are annotated with their pKd.

Consider the reported pKd for these compounds:
CCN[C@@H](C)C(=O)N[C@H](C(=O)N1CC[C@H](OC)[C@H]1Cc1c[nH]c2ncccc12)C(C)(C)C = 5.00 to 6.00
CN[C@@H](C)C(=O)N[C@H](C(=O)N1CCC[C@H]1Cc1c(-c2ccccc2)n(C)c2ncccc12)[C@@H](C)OC = > 7.00
CN[C@@H](C)C(=O)N[C@H](C(=O)N1CC[C@H](C)[C@H]1Cc1c[nH]c2cc(F)ccc12)[C@@H](C)OC = < 7.00
CC[C@H](NC)C(=O)N[C@H](C(=O)N1CC[C@H](O)[C@H]1Cc1c[nH]c2cc(F)ccc12)C(C)(C)C = > 7.00
CCN[C@@H](C)C(=O)N[C@H](C(=O)N1CC[C@H](OC)[C@H]1Cc1c[nH]c2cc(F)ccc12)[C@@H](C)OC = < 5.00

Note: attention shifts to another entry.
Input: Reported pKd, compound CC[C@H](NC)C(=O)N[C@H](C(=O)N1CC[C@@H](O)[C@H]1Cc1c[nH]c2ccccc12)[C@@H](C)O : ____
Output: > 7.00
